Recorded PERCENTAGE OF CELL PROLIFERATION for the following molecules
Test system: A549 (human lung carcinoma)
Experiment: Test on cell proliferation (MTT test), A549
Format: cell-based
Conditions: 100 nM, 72 hours
Field note: include the unit after the figure.

Molecule | Measured On | PERCENTAGE OF CELL PROLIFERATION
CCC1(O)CC(=O)OCc2c1cc1n(c2=O)Cc2cc3cc4c(cc3nc2-1)OCCO4 (centres unmarked) | A549 (human lung carcinoma) | 26.00%
CCc1c2c(nc3ccccc13)-c1cc(C(O)(CC)CC(=O)O)c(CO)c(=O)n1C2 (centres unmarked) | A549 (human lung carcinoma) | 56.00%
CCC(O)(CC(=O)O)c1cc2n(c(=O)c1CO)Cc1cc3ccccc3nc1-2 (centres unmarked) | A549 (human lung carcinoma) | 56.00%
CCC1(O)CC(=O)OCc2c1cc1n(c2=O)Cc2cc3ccccc3nc2-1 (centres unmarked) | A549 (human lung carcinoma) | 39.00%

What PERCENTAGE OF CELL PROLIFERATION value was documented for this molecule, CCc1c2c(nc3ccccc13)-c1cc3c(c(=O)n1C2)COC(=O)CC3(O)CC (centres unmarked) ?
31.00%
